- Tested on: MOLT-4
- Method: Antitumor activity against human MOLT4 cells assessed as growth inhibition after 72 hrs by MTT assay
- Assay type: functional, cell-based
- Study Conditions: Homo sapiens, MOLT-4, 72 h
Result Type: pIC50
As a rule, pIC50 stands for the negative log10 of the concentration, concentration in M.

State its pIC50: `O=[N+]([O-])c1ccc2c(ccc3nc4ccccc4n32)c1`
5.52

====

- Tested on: SW-620
- Method: Antitumor activity against human SW620 cells assessed as growth inhibition after 72 hrs by MTT assay
- Assay type: functional, cell-based
- Study Conditions: Homo sapiens, SW-620, 72 h
Result Type: IC50 (µM)
# number only, unit µM dropped from output

| Query Smiles | Value Observed |
| --- | --- |
| O=[N+]([O-])c1ccc2c(ccc3nc4ccccc4n32)c1 | 6 |

State its IC50: `Cl.N#Cc1cc2cc(N)ccc2n2c1nc1ccccc12`
6

State its IC50: `O=[N+]([O-])c1ccc(Cl)c(/C=C/c2nc3ccccc3[nH]2)c1`
28
